This listing pairs compounds with measured pIC50.
- TARGET_OR_TEST_SYSTEM: glutathione S-transferase (GST)-fused full-length human Syk protein (Homo sapiens, UniProt P43405)
- Construct: (GST)-fused full-length human Syk protein; GST (glutathione S-transferase); purchased Carna Biosciences
- ASSAY_SUMMARY: Syk enzyme assay
- Format: biochemical
- EXPERIMENTAL_PARAMETERS: Syk enzyme assay, Test Example 1; read-out: IC50 of Syk-inhibitory activity
pIC50: −log10 of the molar value.

[
  {
    "COMPOUND": "CCCC[C@@H](Nc1nc(Nc2ccc3c(cnn3CCF)c2)c(C(N)=O)cc1F)[C@H](C)N",
    "pIC50": "> 8.00"
  },
  {
    "COMPOUND": "COc1ccc2cc(Nc3nc(NC4CCCCC4N)c(F)cc3C(N)=O)ccc2n1 (stereo not drawn)",
    "pIC50": "> 8.00"
  },
  {
    "COMPOUND": "NC(=O)c1cc(F)c(NC2CCCCC2N)nc1Nc1cncc(NC(=O)c2cccc(Cl)c2)c1 (stereo not drawn)",
    "pIC50": "7.30 to 8.00"
  },
  {
    "COMPOUND": "COc1cc(-c2cncc(Nc3nc(NC4CCCCC4N)c(F)cc3C(N)=O)c2)cc(OC)c1OC (stereo not drawn)",
    "pIC50": "7.00 to 7.30"
  },
  {
    "COMPOUND": "COc1cc(Nc2nc(N[C@@H]3CCCC[C@@H]3N)c(F)cc2C(N)=O)cc(OC)n1",
    "pIC50": "> 8.00"
  },
  {
    "COMPOUND": "NC(=O)c1cc(F)c(N[C@@H]2CCCC[C@@H]2N)nc1Nc1cncc(-c2cc[nH]c2)c1 (relative stereo)",
    "pIC50": "> 8.00"
  },
  {
    "COMPOUND": "CC[C@@H](Nc1nc(Nc2ccnc(-c3cccc(OC)c3F)c2)c(C(N)=O)cc1F)[C@H](C)N",
    "pIC50": "> 8.00"
  },
  {
    "COMPOUND": "COc1cc(Nc2nc(N[C@@H](CN)CC(C)C)c(F)cc2C(N)=O)cc(OC)n1",
    "pIC50": "> 8.00"
  }
]

Could you tell me which pIC50 is on file for CCc1nn(CCOC)c2ccc(Nc3nc(N[C@@H]4CCCC[C@@H]4N)c(F)cc3C(N)=O)cc12 ?
> 8.00

# lookup: pIC50 of C[C@H](N)[C@H](Nc1nc(Nc2cncc(C3CC3)c2)c(C(N)=O)cc1F)C1CC1
> 8.00

// pIC50 lookup, key: COc1cc(Nc2nc(N[C@H]3CCCC[C@H]3N)c(F)cc2C(N)=O)cc(OC)n1
6.00 to 7.00

# get_value(readout='pIC50', item= COc1nc2ccc(Nc3nc(NC4CCCCC4N)c(F)cc3C(N)=O)cc2nc1OC (stereo not drawn) )
> 8.00
